Consider the following compounds and their measured log2 fold change readings.
target: AAK1 (UniProt Q2M2I8); assay: log2 fold change, soluble protein after heating vs DMSO (PISA); higher = thermal stabilisation; K562 cells, 10 uM, 30 min; active = over 0.2 and 3.5 SD of the protein, either way, in both replicates (recomputed)
Sequence (Q2M2I8 whole entry, looked up): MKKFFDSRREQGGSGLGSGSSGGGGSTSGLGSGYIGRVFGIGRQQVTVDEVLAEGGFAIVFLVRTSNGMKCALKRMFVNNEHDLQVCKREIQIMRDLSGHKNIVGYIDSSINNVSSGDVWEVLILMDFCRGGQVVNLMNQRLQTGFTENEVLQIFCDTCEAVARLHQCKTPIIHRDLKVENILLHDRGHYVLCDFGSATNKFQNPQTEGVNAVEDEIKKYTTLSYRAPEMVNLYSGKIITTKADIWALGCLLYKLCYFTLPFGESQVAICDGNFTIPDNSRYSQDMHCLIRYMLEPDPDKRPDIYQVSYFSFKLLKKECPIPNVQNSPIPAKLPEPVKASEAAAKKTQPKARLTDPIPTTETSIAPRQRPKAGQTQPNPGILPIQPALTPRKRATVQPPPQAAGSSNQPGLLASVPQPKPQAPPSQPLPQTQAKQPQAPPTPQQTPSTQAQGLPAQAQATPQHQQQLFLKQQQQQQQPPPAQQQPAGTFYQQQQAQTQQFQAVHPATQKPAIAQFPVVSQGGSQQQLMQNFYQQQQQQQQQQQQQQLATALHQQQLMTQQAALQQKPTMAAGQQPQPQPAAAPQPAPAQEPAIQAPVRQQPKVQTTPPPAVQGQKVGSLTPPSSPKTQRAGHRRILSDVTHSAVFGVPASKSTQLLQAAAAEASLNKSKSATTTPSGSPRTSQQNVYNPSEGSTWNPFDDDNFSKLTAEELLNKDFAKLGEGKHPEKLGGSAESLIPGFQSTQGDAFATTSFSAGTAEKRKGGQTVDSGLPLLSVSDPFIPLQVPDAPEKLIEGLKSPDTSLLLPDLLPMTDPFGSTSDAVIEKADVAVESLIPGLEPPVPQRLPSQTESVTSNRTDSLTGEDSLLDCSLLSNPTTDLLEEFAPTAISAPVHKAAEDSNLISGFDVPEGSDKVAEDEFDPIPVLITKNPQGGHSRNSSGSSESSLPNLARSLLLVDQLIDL
The full data set covers some 7,900 targets. This sample favours those with a hit. About 0.6% of all pairs of compound and target were hits.

CC(=O)c1cnc2ccc(-c3cc(Cl)c(O)c(Cl)c3)nc2c1N[C@H]1CC[C@H](CN(C)C)CC1    0.366 (inactive)
Cc1cc(Nc2cc(CN3CCOCC3)c3nc(C)c(Cc4ccc(Cl)cc4F)n3n2)n[nH]1 [gandotinib]    0.091 (inactive)
CN1CCc2c(c3ccccc3n2Cc2ccc(C(=O)NO)cc2)C1 [Tubastatin A]    0.003 (inactive)
CN(C)CC(=O)Nc1ccc2[nH]c(=O)c3ccccc3c2c1    0.087 (inactive)
CC[C@H](C)[C@H](NC(=O)[C@H]([C@@H](C)CC)N(C)C(C)=O)C(=O)N[C@H](C(=O)N[C@@H](CC(C)C)C(=O)[C@@]1(C)CO1)[C@@H](C)O [epoxomicin]    0.031 (inactive)

Q. # log2 fold change lookup, item CC1=C(C(=O)Nc2cc3cn[nH]c3cc2F)C(c2ccc(C(F)(F)F)cc2)CC(=O)N1 (configuration not stated)
A. -0.055 (inactive)

Q. # log2 fold change lookup, item "Cn1cc(-c2ccc3c(c2)CCN3C(=O)Cc2cccc(C(F)(F)F)c2)c2c(N)ncnc21"
A. -0.011 (inactive)

Q. # log2 fold change lookup, item "C[C@@H](N)c1ccc(C(=O)Nc2ccnc3[nH]ccc23)cc1"
A. 0.412 (active)

Q. # log2 fold change lookup, item "Fc1ccc(Cl)cc1-c1nc(Nc2ccncc2)c2nccnc2n1"
A. 0.019 (inactive)

Q. # log2 fold change lookup, item CS(=O)(=O)N1CCN(Cc2cc3nc(-c4cccc5[nH]ncc45)nc(N4CCOCC4)c3s2)CC1 [pictilisib]
A. 0.087 (inactive)

Q. # log2 fold change lookup, item Cc1ccc(C(=O)N(CCCN)[C@@H](c2nc3cc(Cl)ccc3c(=O)n2Cc2ccccc2)C(C)C)cc1 [ispinesib]
A. 0.091 (inactive)

Q. # log2 fold change lookup, item "Cc1nc(Nc2n[nH]c3c2CN(C(=O)N[C@H](CN(C)C)c2ccccc2)C3(C)C)c2sccc2n1"
A. 0.158 (inactive)

Q. # log2 fold change lookup, item "CCCc1cc(C)[nH]c(=O)c1CNC(=O)c1cc(-c2ccnc(N3CCN(C)CC3)c2)cc2c1cnn2C(C)C"
A. 0.08 (inactive)

Q. # log2 fold change lookup, item "Cc1cccc(-c2[nH]c(C(C)(C)C)nc2-c2ccc3nccnc3c2)n1"
A. 0.015 (inactive)

----------
Consider the following compounds and their measured log2 fold change readings.
molecular target: AAK1 (UniProt Q2M2I8); assay: log2 fold change, soluble protein after heating vs DMSO (PISA); higher = thermal stabilisation; K562 cells, 10 uM, 30 min; active = over 0.2 and 3.5 SD of the protein, either way, in both replicates (recomputed)
Targets with a hit are over-represented here; the source holds about 7,900 in all. About 0.6% of all pairs of compound and target were hits.
Answer as a number with no unit attached.

C[C@@H](Oc1cc(-c2cnn(C3CCNCC3)c2)cnc1N)c1c(Cl)ccc(F)c1Cl    0.169
FC(F)(F)c1ccc(/C=C/c2nc(COc3ccc(CCCCn4ccnn4)cc3)co2)cc1    -0.066

Q. # log2 fold change lookup, item "C[C@@H]1COCCN1c1cc(C2(S(C)(=O)=O)CC2)nc(-c2cccc3[nH]ccc23)n1"
A. 0.028

Q. # log2 fold change lookup, item "Cc1cc(SCc2sc(-c3ccc(C(F)(F)F)cc3)nc2C)ccc1OCC(=O)O"
A. 0.096

----------
biological target: AAK1 (UniProt Q2M2I8); test: log2 fold change, soluble protein after heating vs DMSO (PISA); higher = thermal stabilisation; K562 cells, 10 uM, 30 min; active = over 0.2 and 3.5 SD of the protein, either way, in both replicates (recomputed)
Of roughly 7,900 targets only a part is listed; those with a hit were picked by preference. About 0.6% of all pairs of compound and target were hits.
measured-metric: log2 fold change
Answer as a number with no unit attached.

A selection of reference data follows.
CNc1nc(-c2ccc3c(N)n[nH]c3c2)cc(N2C[C@@H](C(=O)NC3CCCCC3)CC[C@H]2C)n1    0.252
CCn1cc(-c2ccnc3[nH]c(-c4cccc(CN(C)C)c4)cc23)c(-c2ccc(NC(=O)N(C)C)cc2)n1    -0.141
CS(=O)(=O)CCNCc1ccc(-c2ccc3ncnc(Nc4ccc(OCc5cccc(F)c5)c(Cl)c4)c3c2)o1 [lapatinib]    0.038

Continue with the next compound.
Q. # log2 fold change lookup, item CN1CC[C@H](c2c(O)cc(O)c3c(=O)cc(-c4ccccc4Cl)oc23)[C@H](O)C1 [alvocidib]
A. 0.025

----------
Consider the following compounds and their measured log2 fold change readings.
biological target: AAK1 (UniProt Q2M2I8); test: log2 fold change, soluble protein after heating vs DMSO (PISA); higher = thermal stabilisation; K562 cells, 10 uM, 30 min; active = over 0.2 and 3.5 SD of the protein, either way, in both replicates (recomputed)
Of roughly 7,900 targets only a part is listed; those with a hit were picked by preference. About 0.6% of all pairs of compound and target were hits.
Answer as a number with no unit attached.

CN1CCC(CNc2ccc3ncc(-c4cccc(OC(F)(F)F)c4)n3n2)CC1    0.27
Cc1ccc2c(=O)c3ccccc3n(CCCN)c2c1C    -0.017
C=CC(=O)N1CCC[C@@H](n2nc(-c3ccc(Oc4ccccc4)cc3)c3c(N)ncnc32)C1    0.051
O=C(Nc1cccc(Nc2ncc(Br)c(NCCc3cnc[nH]3)n2)c1)N1CCCC1    0.265
COc1cc2nc(-c3cc(F)ccc3O)nc(N[C@@H]3CNC[C@H]3C(C)(C)O)c2cc1OC    0.024

Q. Request body: readout log2 fold change, system AAK1 (UniProt Q2M2I8), query "Cc1cccc(CC(=O)N2CCc3c2ccc(-c2cn(C)c4ncnc(N)c24)c3F)n1" . Return the value.
A. -0.048

Q. Request body: readout log2 fold change, system AAK1 (UniProt Q2M2I8), query "CN1CCN(CCOc2cc(OC3CCOCC3)c3c(Nc4c(Cl)ccc5c4OCO5)ncnc3c2)CC1" . Return the value.
A. 0

Q. Request body: readout log2 fold change, system AAK1 (UniProt Q2M2I8), query "CN1CCN(c2nc(C3=C(c4c[nH]c5ccccc45)C(=O)NC3=O)c3ccccc3n2)CC1" . Return the value.
A. -0.196

Q. Request body: readout log2 fold change, system AAK1 (UniProt Q2M2I8), query "Cn1cncc1[C@@](N)(c1ccc(Cl)cc1)c1ccc2c(c1)c(-c1cccc(Cl)c1)cc(=O)n2C" . Return the value.
A. -0.057

Q. Request body: readout log2 fold change, system AAK1 (UniProt Q2M2I8), query "O=C(CCCCCCNC(=O)c1cnc(N(c2ccccc2)c2ccccc2Cl)nc1)NO" . Return the value.
A. -0.015

Q. Request body: readout log2 fold change, system AAK1 (UniProt Q2M2I8), query "Cn1cc(-c2ccc3nnc(C(F)(F)c4ccc5ncccc5c4)n3n2)cn1" . Return the value.
A. -0.086

Q. Request body: readout log2 fold change, system AAK1 (UniProt Q2M2I8), query "NC(=O)Nc1cc(-c2cccc(F)c2)sc1C(=O)N[C@H]1CCCNC1" . Return the value.
A. 0.28

----------
biological target: AAGAB (UniProt Q6PD74); experiment: log2 fold change, soluble protein after heating vs DMSO (PISA); higher = thermal stabilisation; K562 cells, 10 uM, 30 min; active = over 0.2 and 3.5 SD of the protein, either way, in both replicates (recomputed)
Sequence (Q6PD74 whole entry, looked up): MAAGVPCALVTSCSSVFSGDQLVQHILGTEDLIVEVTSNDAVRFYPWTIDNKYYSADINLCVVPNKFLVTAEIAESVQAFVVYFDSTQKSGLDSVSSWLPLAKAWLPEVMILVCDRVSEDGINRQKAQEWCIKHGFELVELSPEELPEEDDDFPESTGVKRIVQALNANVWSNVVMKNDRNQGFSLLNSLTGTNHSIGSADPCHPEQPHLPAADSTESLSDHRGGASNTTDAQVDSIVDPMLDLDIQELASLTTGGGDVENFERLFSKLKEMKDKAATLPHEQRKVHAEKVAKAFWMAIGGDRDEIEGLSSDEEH
Targets with a hit are over-represented here; the source holds about 7,900 in all. About 0.6% of all pairs of compound and target were hits.
measured-metric: log2 fold change

A selection of reference data follows.
NCC(=O)Nc1ccc(-n2nc(C(F)(F)F)cc2-c2ccc3c(ccc4ccccc43)c2)cc1    -0.011 (inactive)
C#Cc1cccc(Nc2ncnc3cc(OCCOC)c(OCCOC)cc23)c1 [erlotinib]    0.251 (inactive)
COc1cc2ncnc(Nc3ccc(F)c(Cl)c3)c2cc1OCCCN1CCOCC1 [gefitinib]    -0.027 (inactive)
O=C1NC(=O)/C(=C\c2ccc3nccnc3c2)S1    0.027 (inactive)
Cc1ccc(-n2nc(C(C)(C)C)cc2NC(=O)Nc2ccc(OCCN3CCOCC3)c3ccccc23)cc1 [doramapimod]    0.017 (inactive)
CN(CCOc1ccc(C[C@@H]2SC(=O)NC2=O)cc1)c1ccccn1 (racemic) [rosiglitazone]    0.029 (inactive)
COC(=O)[C@H](CCSC)NC(=O)c1ccc(NC[C@@H](N)CS)cc1-c1ccccc1    -0.029 (inactive)
C[C@H](Nc1ncnc2nc[nH]c12)c1cc2cccc(Cl)c2c(=O)n1-c1ccccc1 [duvelisib]    -0.1 (inactive)

Continue with the next compound.
Q. Request body: readout log2 fold change, system AAGAB (UniProt Q6PD74), query "COc1cccc2cc(-c3nc([C@H]4CC[C@H](C(=O)O)CC4)n4ncnc(N)c34)[nH]c12" . Return the value.
A. -0.045 (inactive)

Recorded values, source the supplement of paper PMC10849652.
